Test system: SF-539 CNS
Experiment: NCI tumour cell line growth inhibition, 48 h
Provide the reported log10 TGI of each item.
Recorded TGI (log10, µM)

{"compound": "COc1ccc(/C=C\\c2cc(OC)c(OC)c(OC)c2)c(NS(=O)(=O)c2ccc(Cl)cc2)c1O", "endpointResult": 1.02}
{"compound": "C=C(C)[C@@H]1CC[C@]2(CO)CC[C@]3(C)[C@H](CC[C@@H]4[C@@](C)(CCCN)[C@H](C(=C)C)CC[C@]43C)[C@@H]12", "endpointResult": 0.48}
{"compound": "N=c1ccc2nc3c(cc(N)c4ccccc43)oc-2c1", "endpointResult": 0.02}
{"compound": "COc1ccccc1NC(=O)C1=C(C)NC(C)=C(C(=O)Nc2ccccc2OC)C1c1ccc(N(C)C)cc1", "endpointResult": 1.87}
{"compound": "CCN(CCCl)c1cccc(NC(=O)c2ccc(C(=O)Nc3cccc(CN(C)C)c3)cc2)c1", "endpointResult": -0.21}

Here are 2 compounds. What values of log10 TGI were reported for them?
1. COC(=O)[C@]1(C)CCC[C@@]2(C)[C@@H]3C[C@@H]4[C@H]5C[C@@]3(CC[C@@H]21)C[C@@]45C
2. CCCCN(CCCC)CCc1c(C)cc(C)c(CCN(CCCC)CCCC)c1O

// result
1: 1.59; 2: 1.45

Here are 6 compounds. What values of log10 TGI were reported for them?
1. C[C@]12CC[C@H]3[C@@H](CC[C@]4(O)C[C@@H](O)CC[C@]34CO)[C@@]1(O)CC[C@@H]2C1=CC(=O)OC1
2. CCN(CC)CCCC(C)Nc1cc(-c2ccccc2)nc2cc(OC)ccc12 (stereo not given)
3. COC(=O)C1Cc2c([nH]c3ccccc23)C(c2ccccc2O)N1Cc1ccccc1 (stereo not given)
4. C/C(=N\NC(=S)N1CCN(c2ccccn2)CC1)c1nccs1
5. CNCCNc1nc2ccccc2c2c(=O)c3cc(F)ccc3sc12
6. O=C1C(Cl)=C(c2ccc([N+](=O)[O-])cc2)C(=O)c2c(O)cccc21

// result
1. 0.38
2. 1.25
3. 1.81
4. 0.64
5. 0.50
6. 0.05

// query Consider the compound shown here: CCCCCCNC(=O)Oc1ccc(/C(=C(/C)Cc2ccc(OC)cc2)c2ccc(OCCN(C)C)cc2)cc1 What is its recorded log10 TGI?
// result 0.98

Recorded values, source PubChem BioAssay (NCI).
